- TARGET_OR_SYSTEM: D816V Kit (Homo sapiens, UniProt P10721, D816V)
- Sequence (P10721 26-976 D816V): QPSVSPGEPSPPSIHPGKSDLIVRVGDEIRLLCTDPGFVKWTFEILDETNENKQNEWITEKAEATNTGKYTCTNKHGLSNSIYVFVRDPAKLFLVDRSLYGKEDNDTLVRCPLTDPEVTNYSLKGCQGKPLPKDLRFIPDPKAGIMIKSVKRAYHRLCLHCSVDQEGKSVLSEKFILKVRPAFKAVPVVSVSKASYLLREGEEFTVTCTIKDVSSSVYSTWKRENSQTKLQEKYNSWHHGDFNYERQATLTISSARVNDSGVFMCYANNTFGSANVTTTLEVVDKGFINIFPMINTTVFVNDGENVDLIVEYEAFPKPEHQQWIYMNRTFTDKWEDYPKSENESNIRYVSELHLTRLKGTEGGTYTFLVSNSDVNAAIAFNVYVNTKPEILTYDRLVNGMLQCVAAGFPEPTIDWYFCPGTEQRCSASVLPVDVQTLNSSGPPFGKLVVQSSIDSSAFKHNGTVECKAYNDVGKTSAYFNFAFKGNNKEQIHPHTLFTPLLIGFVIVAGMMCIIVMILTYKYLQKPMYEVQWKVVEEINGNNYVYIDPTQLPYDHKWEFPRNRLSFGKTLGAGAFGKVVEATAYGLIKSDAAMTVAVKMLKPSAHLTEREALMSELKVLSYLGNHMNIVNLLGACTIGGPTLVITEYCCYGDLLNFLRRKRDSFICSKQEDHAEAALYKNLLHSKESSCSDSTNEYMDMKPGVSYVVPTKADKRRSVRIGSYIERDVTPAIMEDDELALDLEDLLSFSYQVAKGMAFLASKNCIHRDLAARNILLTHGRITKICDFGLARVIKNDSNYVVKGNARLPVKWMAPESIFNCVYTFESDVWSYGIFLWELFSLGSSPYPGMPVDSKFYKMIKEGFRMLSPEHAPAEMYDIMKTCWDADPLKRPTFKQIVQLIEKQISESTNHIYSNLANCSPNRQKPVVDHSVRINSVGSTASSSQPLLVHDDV
- ASSAY_EXPLANATION: Kit D816V assay at Km (Caliper electrophoretic mobility shift)
- SETTINGS: 15 uM ATP, 25 C, 90 minutes
- Excerpt: In order to assess the activity of chemical compounds against the relevant kinase of interest, the Caliper LifeSciences electrophoretic mobility shift technology platform is used. […] At the end of the reaction, the mix of phosphorylated (product) and non-phosphorylated (substrate) peptides are passed through the microfluidic system of the Caliper EZ Reader 2, under an applied potential difference. […] As the pools pass a LEDS within the instrument, these pools are detected and resolved as separate peaks. […]
pIC50: −log10 of the molar value.
# pIC50 listing for each entry below

| COMPOUND | pIC50 |
| --- | --- |
| Cc1c(Nc2ncnc(N3CCN(c4ncc(Sc5ccc(F)cc5)cn4)CC3)n2)cnn1C[C@H](C)O | 8.00 to 9.00 |
| COc1ccccc1Cc1cnc(N2CCN(c3ncnc(Nc4ccc5c(c4)CNCC5)n3)CC2)nc1 | 8.00 to 9.00 |
| Cc1c(Nc2ncnc(N3CCN(c4ncc(Sc5ccc(F)cc5)cn4)CC3)n2)cnn1C[C@@H]1CNCCO1 | 8.00 to 9.00 |
| C[C@]1(O)CCCN(c2ccc(Nc3ncnc(N4CCN(c5ncc(Cc6ccccc6)cn5)CC4)n3)cc2)C1 (single isomer, unassigned) | 8.00 to 9.00 |
| Brc1cnc(N2CCN(c3ncnc(Nc4cnn(C[C@@H]5CNCCO5)c4)n3)CC2)nc1 | 8.00 to 9.00 |
| Cc1c(Nc2ncnc(N3CCN(c4ncc(Sc5ccccc5F)cn4)CC3)n2)cnn1C[C@H](C)O | 8.00 to 9.00 |
| Cc1c(Nc2ncnc(N3CCN(c4ncc(C(C)c5ccccc5)cn4)CC3)n2)cnn1C[C@@H]1CNCCO1 (stereo partly shown) | 8.00 to 9.00 |
| CC(C)(c1ccccc1)c1cnc(N2CCN(c3ncnc(Nc4ccc(N5CCC[C@@H](O)C5)cc4)n3)CC2)nc1 | 8.00 to 9.00 |
| Fc1ccc(Cc2cnc(N3CCN(c4ncnc(Nc5ccc6c(c5)CNCC6)n4)CC3)nc2)cc1F | 8.00 to 9.00 |
| OCc1cccc(Nc2ncnc(N3CCN(c4ncc(Cc5ccccc5)cn4)CC3)n2)c1 | > 9.00 |
| CC(C)(O)Cn1cc(Nc2ncnc(N3CCN(c4ncc([C@@](C)(O)c5ccc(F)cc5)cn4)CC3)n2)cn1 | > 9.00 |
| c1ccc(Cc2cnc(N3CCN(c4ncnc(Nc5cccc(O[C@@H]6CCNC6)c5)n4)CC3)nc2)cc1 | > 9.00 |
| c1ccc(Cc2cnc(N3CCN(c4ncnc(Nc5cnn(C[C@@H]6COCCO6)c5)n4)CC3)nc2)cc1 | > 9.00 |
| c1ccc(Cc2cnc(N3CCN(c4ncnc(Nc5cnn(C6CNC6)c5)n4)CC3)nc2)cc1 | 8.00 to 9.00 |
| OC[C@@H](O)COc1cccc(Nc2ncnc(N3CCN(c4ncc(Cc5ccccc5)cn4)CC3)n2)c1 | 8.00 to 9.00 |
| Fc1ccc(Sc2cnc(N3CCN(c4ncnc(Nc5cnn(C[C@@H]6CNCCO6)c5)n4)CC3)nc2)cc1 | > 9.00 |
| Nc1nc(N2CCN(c3ncnc(Nc4ccc5c(c4)CNCC5)n3)CC2)ncc1Cc1ccccc1 | > 9.00 |
| CN1CCC[C@@H]1COc1ccc(Nc2ncnc(N3CCN(c4ncc(Cc5ccccc5)cn4)CC3)n2)cc1 | > 9.00 |
| c1ccc(C2(c3cnc(N4CCN(c5ncnc(Nc6cnn(C[C@@H]7CNCCO7)c6)n5)CC4)nc3)CC2)cc1 | 8.00 to 9.00 |
| CC(C)(O)Cn1cc(Nc2ncnc(N3CCN(c4ncc(C(C)(C)c5ccc(F)cc5)cn4)CC3)n2)cn1 | > 9.00 |
| CN1CCNC[C@@H]1Cn1cc(Nc2ncnc(N3CCN(c4ncc(Cc5ccccc5)cn4)CC3)n2)cn1 | 8.00 to 9.00 |
| OC[C@H]1CN(c2ncnc(Nc3cnn(CC4CNCCO4)c3)n2)CCN1c1ncc(Cc2ccccc2)cn1 (stereo partly shown) | 7.00 to 8.00 |
| CC(O)(c1ccccc1)c1cnc(N2CCN(c3ncnc(Nc4cnn(C[C@@H]5CNCCO5)c4)n3)CC2)nc1 (stereo partly shown) | > 9.00 |
| OCCC1CN(c2ncnc(Nc3ccc4c(c3)CNCC4)n2)CCN1c1ncc(Cc2ccccc2)cn1 (stereo not shown) | > 9.00 |
| OC[C@@H](O)c1ccc(Nc2ncnc(N3CCN(c4ncc(Cc5ccccc5)cn4)CC3)n2)cc1 (single isomer, unassigned) | > 9.00 |
| C[C@@H](O)CNc1ccc(Nc2ncnc(N3CCN(c4ncc(Cc5ccccc5)cn4)CC3)n2)cc1 | > 9.00 |
| CC(C)(O)CN1CCc2ccc(Nc3ncnc(N4CCN(c5ncc(Cc6ccccc6)cn5)CC4)n3)cc2C1 | > 9.00 |
| Nc1nc(N2CCN(c3ncnc(Nc4cnc5c(c4)CNCC5)n3)CC2)ncc1Cc1ccccc1 | > 9.00 |
